Reference for the values: patent US10689452

# Assayed Target: T1, human TNFR1 on cells (HT1080, HeLa, Kym-1) (human, UniProt P19438 30-455)
# T1 sequence (looked up): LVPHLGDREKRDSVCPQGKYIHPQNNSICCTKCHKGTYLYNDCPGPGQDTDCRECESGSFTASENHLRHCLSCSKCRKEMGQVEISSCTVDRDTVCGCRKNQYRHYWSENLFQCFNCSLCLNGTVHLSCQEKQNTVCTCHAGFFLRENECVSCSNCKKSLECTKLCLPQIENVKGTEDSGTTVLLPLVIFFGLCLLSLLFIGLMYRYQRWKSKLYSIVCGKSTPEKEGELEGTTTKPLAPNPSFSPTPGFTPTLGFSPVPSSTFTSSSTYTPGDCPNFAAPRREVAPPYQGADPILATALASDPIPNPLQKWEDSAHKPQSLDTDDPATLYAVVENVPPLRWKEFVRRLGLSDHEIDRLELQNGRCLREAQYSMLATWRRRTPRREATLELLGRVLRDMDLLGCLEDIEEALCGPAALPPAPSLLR
# Assay Protocol: cell-based or functional assay
Experimental Endpoint: IC50 (nM), inhibition of TNF-induced IL-8 release from HT1080 cells

{"Binder": "scFvFRK13.5 (scFv, V domains shown, also called scFvFKR13.5) VH: HVQLVQSGAEVKKPGSSVKVSCKASGYTFTDFYINWVRQAPGQGLEWIGEIVPSQGEAKYNDKFKARVTITADKSTSTAYMELSSLRSEDTAVYYCARWDFLDYWGQGTTVTVSS VL: DIQMTQSPSSLSASVGDRVTITCRSSQSLLHSNGNTYLHWYQQKPGKAPKLLIYTVSNRFSGVPSRFSGSGSGTDFTLTISSLQPEDFATYYCSQSTHVPYTFGGGTKVEIK", "Assay Result": 367}
